Assay: Half life in chronic myeloid leukemia patient
Assay type: ADME, organism-based
Details: human, in vivo
measured.property: half-life (h)
All answers are understood in h, so give the number only.

Return reported half-life; argument: `Cc1nc(Nc2ncc(C(=O)Nc3c(C)cccc3Cl)s2)cc(N2CCN(CCO)CC2)n1.O`
3
